All values here come from PubChem BioAssay (NCI).

Test system: IGROV1 ovarian
protocol.details: NCI tumour cell line growth inhibition, 48 h
Collected TGI values appear next to each entry.
measured.quantity: TGI

compound=O=C(Nc1cccc2c1[nH]c1c(-c3ccccc3)nccc12)c1ccccc1[N+](=O)[O-] measured_quantity=TGI result="> 100 µM"
compound="CC(=O)OC12COC1CC(O)C1(C)C(=O)C(O)C3=C(C)C(O)CC(O)(C(OC(=O)c4ccccc4)C21)C3(C)C (stereo not given)" measured_quantity=TGI result="> 100 µM"
compound=COc1cc(/C=C2\C[C@H]3[C@@H]4CC=C5C[C@@H](O)CC[C@]5(C)[C@H]4CC[C@]3(C)[C@H]2O)ccc1OCCCn1ccnc1 measured_quantity=TGI result="> 50 µM"
compound=CC(C)(C)CC(N)=O measured_quantity=TGI result="> 100 µM"
compound="CC1(c2ccccc2)CC(c2cccc([N+](=O)[O-])c2)=NO1 (stereo not given)" measured_quantity=TGI result="> 100 µM"
